Measured endpoint: melting point

{"Compound": "CCCCCCCOCC1OC1CO (stereo unspecified)", "Result": "50 to 52 °C"}
{"Compound": "CCOC(=O)N1CC[C@H](Oc2cccc(F)c2)[C@H](c2ccccc2)C1 (relative stereo)", "Result": "74 to 76.5 °C"}
{"Compound": "CNC(=S)N1CCc2nc(N)sc2C1", "Result": "188 to 190 °C"}
{"Compound": "Cc1nccc2c1[nH]c1cc(OCc3ccccc3)ccc12", "Result": "212 °C"}
{"Compound": "CCCc1c(C(=O)N(C)Cc2ccc3cc(O)ccc3c2)cnn1-c1ccccc1", "Result": "138 to 141 °C"}
{"Compound": "CCCC(=O)Nc1c(C(=O)c2cccc(C)c2)[nH]c2cc(Cl)ccc12", "Result": "127 to 130 °C"}
{"Compound": "Cc1cc(-c2c(Cl)ccc(C(=O)O)c2Cl)on1", "Result": "154 to 156 °C"}
{"Compound": "O=C(O)CSC(CCCc1ccccc1)c1ccc(OCc2ccc3ccccc3n2)cc1 (stereo unspecified)", "Result": "118 to 119 °C"}
{"Compound": "ClCCn1cnc2c(NC3CCCCC3)nc(Cl)nc21", "Result": "150 to 152 °C"}
{"Compound": "COc1cc(OC)c2c(=O)[nH]c(-c3cc(C)c(OCCN4CCCC4)c(C)c3)nc2n1", "Result": "228 to 230 °C"}
{"Compound": "CCN(CC)c1ccc(-c2nc3ccc(OC(F)(F)F)cc3[nH]2)cc1", "Result": "168 to 173 °C"}
{"Compound": "CN1CCN(c2ccc(N/C=C3\\C(=O)NC(=O)c4ccc(I)cc43)cc2)CC1", "Result": "220 to 221 °C"}
{"Compound": "Cc1cc(F)c(F)cc1O", "Result": "68 to 70 °C"}
{"Compound": "O=C(c1ccc(Cl)cc1)c1c(N2C(=O)c3ccccc3C2=O)sc(Br)c1CN1CCN(c2ccccc2)CC1", "Result": "186 to 193 °C"}
{"Compound": "CC(C)(C)c1ccc(OCC2=NC3(O)c4ccc(Cl)cc4CC3S2)cc1 (stereo unspecified)", "Result": "122 to 124 °C"}
{"Compound": "COC(=O)c1ccc2c(c1)C(=O)N(c1ccccc1)C2=O", "Result": "200 to 207 °C"}
{"Compound": "CC(=O)n1cc(C#N)c(-c2ccc(F)c(Cl)c2F)c1", "Result": "182 to 183 °C"}
{"Compound": "COc1cc(CCNC(=O)N(C)O)cc(OC)c1OC", "Result": "100 to 102 °C"}
{"Compound": "Cc1cccc(NC(=O)N(C)Cc2cccc3c2C(=O)N(C2CCC(=O)NC2=O)C3=O)c1 (stereo unspecified)", "Result": "212 to 215 °C"}
{"Compound": "O=C(NC(=O)c1c(Cl)cccc1Cl)Nc1cc(Cl)c(OC(F)(F)C(F)Cl)cc1Cl (stereo unspecified)", "Result": "198 to 200 °C"}
{"Compound": "CC(C#N)c1cccc2c(-c3ccccc3)onc12 (stereo unspecified)", "Result": "109 to 112 °C"}
